biological target: T1, ActRIIa Fc fusion (R&D Systems) (UniProt P27037 20-134, limits assumed); test: AlphaScreen competition against biotinylated Y65N/S120D BMP-7
T1 construct: Bought receptor/Fc fusion; not shown: Fc part of the bought fusion
T1 sequence (P27037 20-134 limits assumed): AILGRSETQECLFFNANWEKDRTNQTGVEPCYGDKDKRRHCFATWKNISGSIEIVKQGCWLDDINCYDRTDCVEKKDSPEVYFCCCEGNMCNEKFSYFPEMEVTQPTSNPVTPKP
Reported values of EC50 for individual entries
// note: answer is a bare numeric in µg/mL

Consider the following illustrative entries.
wild type human BMP-7 (R&D Systems) (ligand, Bought recombinant protein; It describes BMPs as dimers; also called wt; recombinant human BMP-7) STGGKQRSQNRSKTPKNQEALRMASVAENSSSDQRQACKKHELYVSFRDLGWQDWIIAPEGYAAYYCEGECAFPLNSYMNATNHAIVQTLVHFINPETVPKPCCAPTQLNAISVLYFDDSSNVILKKYRNMVVRACGCH
0.107
BMP-7 variant 526 (K39S/S120D/R134E) (ligand, Expressed from the full-length Image clone and processed to the mature dimer; Purified from conditioned media on SP-sepharose; also called v526) STGGKQRSQNRSKTPKNQEALRMASVAENSSSDQRQACSKHELYVSFRDLGWQDWIIAPEGYAAYYCEGECAFPLNSYMNATNHAIVQTLVHFINPETVPKPCCAPTQLNAISVLYFDDDSNVILKKYRNMVVEACGCH
0.0445
BMP-7 variant 504 (Y65N/S120D) (ligand, Expressed from the full-length Image clone and processed to the mature dimer; Purified from conditioned media on SP-sepharose; also called v504) STGGKQRSQNRSKTPKNQEALRMASVAENSSSDQRQACKKHELYVSFRDLGWQDWIIAPEGYAANYCEGECAFPLNSYMNATNHAIVQTLVHFINPETVPKPCCAPTQLNAISVLYFDDDSNVILKKYRNMVVRACGCH
0.0475

Turning now to a further binder:
Looking for the measured EC50 of BMP-7 variant 565 (Y65N/F93T/R129D) (ligand, Expressed from the full-length Image clone and processed to the mature dimer; Purified from conditioned media on SP-sepharose; also called v565) STGGKQRSQNRSKTPKNQEALRMASVAENSSSDQRQACKKHELYVSFRDLGWQDWIIAPEGYAANYCEGECAFPLNSYMNATNHAIVQTLVHTINPETVPKPCCAPTQLNAISVLYFDDSSNVILKKYDNMVVRACGCH , can you help? 0.0424
